B1: Pistol ribozyme (parent)
chain: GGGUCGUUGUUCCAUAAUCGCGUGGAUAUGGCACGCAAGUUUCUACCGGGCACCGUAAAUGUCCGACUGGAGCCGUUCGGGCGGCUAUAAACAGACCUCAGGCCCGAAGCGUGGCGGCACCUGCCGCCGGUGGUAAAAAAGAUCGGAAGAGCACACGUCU

Variants of: B1
Protocol Details: aptazyme ON/OFF ratio, guanine; higher = stronger switching; co-transcriptional cleavage with and without guanine
Recorded aptazyme ON/OFF ratio, one value per entry.
Metric: aptazyme ON/OFF ratio

• U7A U8G U11C C12G C13G = 1.17
• U7A U8C U11G C12U C13A = 1.08
• U7G U8C G9C U10A U11C C12U = 1.32
• U7A U8G G9A U10C C12U C13A = 1.17
• U7A U8C G9A U10C U11C C12G C13U = 1.06
• U8G G9U U10A C12A C13U = 1.25
• U7C U8G G9C U10G U11A = 1.07
• U7C U8C G9A = 1.59
• U7C U8G G9C U10G U11C C13U = 1.07
• U7G U8G U10A U11G C12U C13U = 1.22
• U7A U8C G9U U10A U11C C12A = 1.2

Sourced from the RNAGym collection of RNA variant scans (doi:10.1021/acssynbio.7b00057)
